Each recorded value in this set is attributed to patent US20250034256A1.

biological target: T1, Histidine-tagged human PD-1 protein (hPD-1-His) (human, UniProt Q15116 25-170, limits assumed); experiment: SPR (Biacore T200), antibody captured on Protein A chip, hPD-1-His analyte, 1:1 fit
T1 construct: Soluble analyte in SPR; not shown: histidine tag
T1 sequence (Q15116 25-170 limits assumed): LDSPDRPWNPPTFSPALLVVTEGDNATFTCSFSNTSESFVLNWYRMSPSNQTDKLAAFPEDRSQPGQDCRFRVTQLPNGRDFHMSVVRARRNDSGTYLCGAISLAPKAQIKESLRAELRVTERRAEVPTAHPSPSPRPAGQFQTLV
READOUT: koff (s⁻¹)
Hi! Could you send only the number? It should be in s⁻¹, unit omitted.

Consider the reported koff for these binders:
BINDER	U	koff
3F1-H3K3-IgG4-S228P (antibody, V domains shown, Humanized; human IgG4 constant domains with S228P (EU numbering)) VH: QVQLQQSGAEVAKPGASVKMSCKASGYTFTSYWMHWVKQRPGQGLEWIGYINPSTGYTEYNQKFKDRATLTADTSTSTAYMELSSLRSEDTAVYYCARGVRYYFDYWGQGTLLTVSS VL: DIVMTQSPSSLAVSAGERVTMSCKSSQSLLNSRTRKNYLAWYQQKPGQSPKLLIYWASTRESGVPDRFSGSGSGTDFTLTISSVQAEDVAVYYCKQSYNLLTFGQGTKLELK	s⁻¹	0.00139
3F1-H2K2-IgG4-S228P (antibody, V domains shown, Humanized; human IgG4 constant domains with S228P (EU numbering)) VH: QVQLQQSGAEVKKPGASVKMSCKASGYTFTSYWMHWVKQRPGQGLEWIGYINPSTGYTEYNQKFKDRATLTADKSTSTAYMELSSLRSEDTAVYYCARGVRYYFDYWGQGTLVTVSS VL: DIVMTQSPDSLAVSLGERATMSCKSSQSLLNSRTRKNYLAWYQQKPGQSPKLLIYWASTRESGVPDRFSGSGSGTDFTLTISSVQAEDVAVYYCKQSYNLLTFGQGTKLELK	s⁻¹	0.0017
1A7-H2K1-IgG4-S228P (antibody, V domains shown, Humanized; human IgG4 constant domains with S228P (EU numbering)) VH: EVQLVESGGGLVQPGGSLRLSCAASGFTFSSYSMSWVRQAPGKRLEWVAHISSGGSSTYYPDTVKGRFTISRDNSKNTLYLQMNSLRAEDTAMYYCTRQFYYGSSFWYFDVWGAGTTVTVSS VL: DNVLTQSPATLSLSPGERATLSCKASQSVDFDGDSYMNWYQQKPGQPPRLLIYAASNLESGIPARFSGSGPGTDFTLTISSLEPEDFATYYCQQSNEDPPTFGGGTKVEIK	s⁻¹	0.0028

I have this binder here, 3F1-H2K3-IgG4-S228P (antibody, V domains shown, Humanized; human IgG4 constant domains with S228P (EU numbering)) VH: QVQLQQSGAEVKKPGASVKMSCKASGYTFTSYWMHWVKQRPGQGLEWIGYINPSTGYTEYNQKFKDRATLTADKSTSTAYMELSSLRSEDTAVYYCARGVRYYFDYWGQGTLVTVSS VL: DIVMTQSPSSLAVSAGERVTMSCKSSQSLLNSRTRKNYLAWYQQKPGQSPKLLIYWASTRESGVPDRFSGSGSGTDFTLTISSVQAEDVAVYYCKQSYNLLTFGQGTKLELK , and I need its recorded koff.
0.00145

I have this binder here, 3F1-H1K3-IgG4-S228P (antibody, V domains shown, Humanized; human IgG4 constant domains with S228P (EU numbering)) VH: QVQLQQSGAEVKKPGASVKMSCKASGYTFTSYWMHWVRQAPGQGLEWIGYINPSTGYTEYNQKFKDRATLTADTSTSTAYMELSSLRSEDTAVYYCARGVRYYFDYWGQGTLVTVSS VL: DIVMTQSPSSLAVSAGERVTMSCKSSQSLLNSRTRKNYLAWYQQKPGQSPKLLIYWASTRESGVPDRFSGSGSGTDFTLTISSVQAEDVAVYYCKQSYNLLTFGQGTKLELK , and I need its recorded koff.
0.00132
